# Tested on: CYP2B6
# measurement notes: CYP2B6 enzyme induction assay in cryopreserved primary human hepatocytes (PHH)
# Type: in vitro ADME
# assay context: CYP2B6, PHH
Each entry below carries its recorded F2.
Expressed in µM, but write only the number.

compound: COc1ccccc1Oc1c(NS(=O)(=O)c2ccc(C(C)(C)C)cc2)nc(-c2ncccn2)nc1OCCO [Bosentan hydrate]
F2 (µM): 5.85

--- query ---
Query string: Which F2 is reported for this compound? CO[C@H]1/C=C/O[C@@]2(C)Oc3c(C)c(O)c4c(O)c(c(/C=N/N5CCN(C)CC5)c(O)c4c3C2=O)NC(=O)/C(C)=C\C=C\[C@H](C)[C@H](O)[C@@H](C)[C@@H](O)[C@@H](C)[C@H](OC(C)=O)[C@@H]1C
Result string: 0.2

----------
# Test system: CYP1A2
# measurement notes: CYP1A2 enzyme induction assay in cryopreserved primary human hepatocytes (PHH);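 further: code 1 means positive inducer and 0 means non-inducer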
# Format: in vitro ADME
# assay context: PHH; Lab 2; batch 0 6 A
Structures can show the parent of a compound that is named as a salt.
Each entry below carries its recorded Assigned classification CYP1A2.
# answer = number (no unit)

Query string: Which Assigned classification CYP1A2 is reported for this compound? COCCc1ccc(OCC(O)CNC(C)C)cc1 (stereo not drawn)
Result string: 0

Query string: Now consider O=C1Nc2ccc(Cl)cc2[C@@](C#CC2CC2)(C(F)(F)F)O1 .
Result string: 0

Query string: Now consider CC(C)NCC(O)c1ccc(NS(C)(=O)=O)cc1 (stereo not drawn) [Sotalol hydrochloride] .
Result string: 0

Query string: Now consider O=C1NC(=O)C(c2ccccc2)(c2ccccc2)N1 [Phenytoin sodium] .
Result string: 1

Query string: Now consider CO[C@H]1/C=C/O[C@@]2(C)Oc3c(C)c(O)c4c(O)c(c(/C=N/N5CCN(C)CC5)c(O)c4c3C2=O)NC(=O)/C(C)=C\C=C\[C@H](C)[C@H](O)[C@@H](C)[C@@H](O)[C@@H](C)[C@H](OC(C)=O)[C@@H]1C .
Result string: 0

Query string: Now consider COc1ccccc1Oc1c(NS(=O)(=O)c2ccc(C(C)(C)C)cc2)nc(-c2ncccn2)nc1OCCO [Bosentan hydrate] .
Result string: 0

----------
Each entry below carries its recorded Assigned classification CYP1A2.
# Tested on: CYP1A2
# measurement notes: CYP1A2 enzyme induction assay in cryopreserved HepaRG cells (phenacetin probe, LC/MS); on Assigned classification CYP1A2: key: 1=Positive=inducer; 0=Negative=non-inducer
# Format: in vitro ADME, human
# assay context: HepaRG; Lab 1; batch 35
Structures can show the parent of a compound that is named as a salt.
# answer = number (no unit)

For orientation, consider the following solved cases.
molecule: CC(C)NCC(O)c1ccc(NS(C)(=O)=O)cc1 (stereo not shown) [Sotalol hydrochloride]
quantity measured: Assigned classification CYP1A2
test result: 0

molecule: COc1ccccc1Oc1c(NS(=O)(=O)c2ccc(C(C)(C)C)cc2)nc(-c2ncccn2)nc1OCCO [Bosentan hydrate]
quantity measured: Assigned classification CYP1A2
test result: 1

molecule: O=C1NC(=O)C(c2ccccc2)(c2ccccc2)N1 [Phenytoin sodium]
quantity measured: Assigned classification CYP1A2
test result: 1

molecule: COCCc1ccc(OCC(O)CNC(C)C)cc1 (stereo not shown)
quantity measured: Assigned classification CYP1A2
test result: 0

Query string: Which Assigned classification CYP1A2 is reported for this molecule? NC(=O)N1c2ccccc2C=Cc2ccccc21 [Carbamazepine]
Result string: 1

Query string: Now consider CO[C@H]1/C=C/O[C@@]2(C)Oc3c(C)c(O)c4c(O)c(c(/C=N/N5CCN(C)CC5)c(O)c4c3C2=O)NC(=O)/C(C)=C\C=C\[C@H](C)[C@H](O)[C@@H](C)[C@@H](O)[C@@H](C)[C@H](OC(C)=O)[C@@H]1C .
Result string: 1

Query string: Now consider COc1ccc2[nH]c([S+]([O-])Cc3ncc(C)c(OC)c3C)nc2c1 (stereo not shown) .
Result string: 1

----------
# System: CYP1A2
# measurement notes: CYP1A2 enzyme induction assay in cryopreserved HepaRG cells (phenacetin probe, LC/MS)
# Assay type: in vitro ADME, human
# assay context: CYP1A2, HepaRG cells; positive in one batch in each of the three laboratories
Where a name gives a salt, the structure may show the parent alone.
quantity measured: Induction in vitro

molecule: CC(C)NCC(O)c1ccc(NS(C)(=O)=O)cc1 (stereo not drawn) [Sotalol hydrochloride]
test result: No
--
molecule: COCCc1ccc(OCC(O)CNC(C)C)cc1 (stereo not drawn)
test result: No
--
molecule: COc1ccc2[nH]c([S+]([O-])Cc3ncc(C)c(OC)c3C)nc2c1 (stereo not drawn)
test result: Yes

----------
# Tested on: CYP2B6
# measurement notes: CYP2B6 enzyme induction assay in cryopreserved primary human hepatocytes (PHH);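 on Assigned classification CYP2B6: code 1 means positive inducer and 0 means non-inducer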
# Format: in vitro ADME
# assay context: PHH; Lab 2; batch 0 6 A
quantity measured: Assigned classification CYP2B6
# answer = number (no unit)

For orientation, consider the following solved cases.
compound: O=C1Nc2ccc(Cl)cc2[C@@](C#CC2CC2)(C(F)(F)F)O1
test result: 1
//
compound: COCCc1ccc(OCC(O)CNC(C)C)cc1 (stereo not drawn)
test result: 0
//
compound: COc1ccccc1Oc1c(NS(=O)(=O)c2ccc(C(C)(C)C)cc2)nc(-c2ncccn2)nc1OCCO [Bosentan hydrate]
test result: 1

--- query ---
Query string: Which Assigned classification CYP2B6 is reported for this compound? CO[C@H]1/C=C/O[C@@]2(C)Oc3c(C)c(O)c4c(c3C2=O)C2=NC3(CCN(CC(C)C)CC3)NC2=C(NC(=O)/C(C)=C\C=C\[C@H](C)[C@H](O)[C@@H](C)[C@@H](O)[C@@H](C)[C@H](OC(C)=O)[C@@H]1C)C4=O
Result string: 0

----------
Each entry below carries its recorded Assigned classification CYP2B6.
# System: CYP2B6
# measurement notes: CYP2B6 enzyme induction assay in cryopreserved HepaRG cells (bupropion probe, LC/MS); further: key: 1=Positive=inducer; 0=Negative=non-inducer
# Format: in vitro ADME, human
# assay context: HepaRG; Lab 1; batch 35
# answer = number (no unit)

compound: O=C1NC(=O)C(c2ccccc2)(c2ccccc2)N1 [Phenytoin sodium]
Assigned classification CYP2B6: 1

--- query ---
Query string: Query Assigned classification CYP2B6 on CYP2B6 for COc1ccc2[nH]c([S+]([O-])Cc3ncc(C)c(OC)c3C)nc2c1 (stereo not shown) [Omeprazole]
Result string: 0

----------
Each entry below carries its recorded Assigned classification CYP3A4.
# Tested on: CYP3A4
# measurement notes: CYP3A4 enzyme induction assay in cryopreserved primary human hepatocytes (PHH)
# assay context: PHH; Lab 2; batch 4 0 8
Counter-ions that a name gives are not always drawn.

For orientation, consider the following solved cases.
compound: CC(C)NCC(O)c1ccc(NS(C)(=O)=O)cc1 (stereo not shown) [Sotalol hydrochloride]
Assigned classification CYP3A4: 0
//
compound: COc1ccccc1Oc1c(NS(=O)(=O)c2ccc(C(C)(C)C)cc2)nc(-c2ncccn2)nc1OCCO [Bosentan hydrate]
Assigned classification CYP3A4: 1
//
compound: COc1ccc2[nH]c([S+]([O-])Cc3ncc(C)c(OC)c3C)nc2c1 (stereo not shown) [Omeprazole]
Assigned classification CYP3A4: 0
//
compound: NC(=O)N1c2ccccc2C=Cc2ccccc21 [Carbamazepine]
Assigned classification CYP3A4: 1
//
compound: O=C1Nc2ccc(Cl)cc2[C@@](C#CC2CC2)(C(F)(F)F)O1 [Efavirenz]
Assigned classification CYP3A4: 1
//
compound: COCCc1ccc(OCC(O)CNC(C)C)cc1 (stereo not shown) [Metoprolol]
Assigned classification CYP3A4: 0

--- query ---
Query string: Which Assigned classification CYP3A4 is reported for this compound? O=C1NC(=O)C(c2ccccc2)(c2ccccc2)N1 [Phenytoin sodium]
Result string: 1

----------
Each entry below carries its recorded F2.
# Test system: CYP3A4
# measurement notes: CYP3A4 enzyme induction assay in cryopreserved primary human hepatocytes (PHH)
# assay context: CYP3A4, PHH
Expressed in µM, but write only the number.

molecule: O=C1Nc2ccc(Cl)cc2[C@@](C#CC2CC2)(C(F)(F)F)O1 [Efavirenz]
study target: CYP3A4
test result: 14.1

--- query ---
Query string: Query F2 on CYP3A4 for O=C1C(CC[S+]([O-])c2ccccc2)C(=O)N(c2ccccc2)N1c1ccccc1 (centres unmarked) [Sulfinpyrazone]
Result string: 3.66

----------
# Tested on: CYP3A4
# measurement notes: CYP3A4 enzyme induction assay in cryopreserved HepaRG cells (midazolam probe, LC/MS); further: key: 1=Positive=inducer; 0=Negative=non-inducer
# Type: in vitro ADME, human
# assay context: HepaRG; Lab 3; batch 35
Where a name gives a salt, the structure may show the parent alone.
quantity measured: Assigned classification CYP3A4

For orientation, consider the following solved cases.
molecule: O=C1NC(=O)C(c2ccccc2)(c2ccccc2)N1 [Phenytoin sodium]
Assigned classification CYP3A4: 1
//
molecule: COc1ccc2[nH]c([S+]([O-])Cc3ncc(C)c(OC)c3C)nc2c1 (stereo not drawn)
Assigned classification CYP3A4: 0
//
molecule: NC(=O)N1c2ccccc2C=Cc2ccccc21 [Carbamazepine]
Assigned classification CYP3A4: 1

Query string: Which Assigned classification CYP3A4 is reported for this molecule? CC(C)NCC(O)c1ccc(NS(C)(=O)=O)cc1 (stereo not drawn) [Sotalol hydrochloride]
Result string: 0

Query string: Now consider COCCc1ccc(OCC(O)CNC(C)C)cc1 (stereo not drawn) .
Result string: 0

Query string: Now consider COc1ccccc1Oc1c(NS(=O)(=O)c2ccc(C(C)(C)C)cc2)nc(-c2ncccn2)nc1OCCO [Bosentan hydrate] .
Result string: 1

The reported numbers originate from paper PMC6718736.
